Assay name: Octanol/buffer distribution coefficient, logD of the compound at pH 7.4
Assay type: physicochemical
logD for assorted molecules
// keep it numeric: no unit symbol after the value

// known answers, use as guide
INSERT INTO measurements (molecule, quantity_kind, readout_value) VALUES
  ('C=CCn1c(=O)c2cnc(Nc3ccc(N4CCN(C)CC4)cc3)nc2n1-c1ccc2c(n1)C(F)(F)CC2', 'logD', 2.8),
  ('C=CCn1c(=O)c2cnc(Nc3ccc(N4CCN(C)CC4)cc3)nc2n1-c1ccc2c(n1)[C@](C)(O)CCC2', 'logD', 2.6),
  ('C=CCn1c(=O)c2cnc(Nc3ccc(N4CCN(C)CC4)cc3)nc2n1-c1ccc2c(n1)[C@](C)(O)CC2', 'logD', 2),
  ('C=CCn1c(=O)c2cnc(Nc3ccc(N4CCN(C)CC4)cc3)nc2n1-c1ccc2c(n1)C(O)(C(F)(F)F)CC2 (single isomer, unassigned)', 'logD', 2.8),
  ('C=CCn1c(=O)c2cnc(Nc3cccc(N4CCN(C)CC4)c3)nc2n1-c1ccc2c(n1)[C@@](O)(CC)CC2', 'logD', 2.6);

Next molecule, logD to be filled in.
Consider C=CCn1c(=O)c2cnc(Nc3ccc(N4CCN(C)CC4)cc3)nc2n1-c1ccc2c(n1)C(O)CC2 (stereo in doubt; 8) . Its measured logD is 1.7

* * *

Assay name: Intrinsic clearance in human hepatocytes
Assay type: ADME, cell-based, Hepatocyte
Condition parameters: read-out: CLH
Quantity kind: CLint scaled

Consider C=CCn1c(=O)c2cnc(Nc3ccc(N4CCN(C)CC4)cc3)nc2n1-c1ccc2c(n1)C(O)(CC)CC2 (racemic) . Its measured CLint scaled is < 18 mL/min/kg

* * *

Assay name: Plasma protein binding in mouse
Format: ADME, cell-free
Condition parameters: read-out: PPB (converted)
Quantity kind: fraction unbound
// keep it numeric: no unit symbol after the value

Consider `C=CCn1c(=O)c2cnc(Nc3ccc(N4CCN(C)CC4)cc3)nc2n1-c1ccc2c(n1)[C@](C)(O)CC2` . Its measured fraction unbound is 0.27

* * *

Test system: Cytochrome P450 3A4 (Homo sapiens, UniProt P08684)
Sequence (P08684 whole entry): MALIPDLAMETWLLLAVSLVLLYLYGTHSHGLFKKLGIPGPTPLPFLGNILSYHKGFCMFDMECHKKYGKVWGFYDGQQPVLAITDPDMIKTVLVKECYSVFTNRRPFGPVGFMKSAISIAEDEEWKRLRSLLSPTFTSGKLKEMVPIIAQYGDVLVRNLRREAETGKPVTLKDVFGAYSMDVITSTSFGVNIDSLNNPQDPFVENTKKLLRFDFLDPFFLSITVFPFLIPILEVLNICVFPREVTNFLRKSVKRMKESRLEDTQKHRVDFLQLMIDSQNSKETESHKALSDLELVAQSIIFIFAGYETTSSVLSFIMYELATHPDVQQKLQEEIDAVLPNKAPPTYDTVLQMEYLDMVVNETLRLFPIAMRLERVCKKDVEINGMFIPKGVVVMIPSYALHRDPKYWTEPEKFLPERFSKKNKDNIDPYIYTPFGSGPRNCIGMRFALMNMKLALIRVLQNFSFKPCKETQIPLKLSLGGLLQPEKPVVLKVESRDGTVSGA
Quantity kind: pIC50
The read-out pIC50 is expressed as -log10 of concentration in moles per litre.

Assay Cytochrome P450 3A4 (Homo sapiens, UniProt P08684), sample C=CCn1c(=O)c2cnc(Nc3ccc(N4CCN(C)CC4)cc3)nc2n1-c1ccc2c(n1)C(O)(CC)CC2 (racemic) , pIC50 read: 5.15

* * *

Assay name: AUC(0 to 24 hrs) in rat at 60 mg/kg, po
Format: ADME, organism-based
Parameters: time < 24 hr, route oral, dose 60 mg/kg
Condition parameters: in vivo
Quantity kind: AUC(0-t) at 24 h (µM·h)
Numbers only here, please. The scale is µM·h.

INSERT INTO assay_data (record_smiles, quantity_kind, readout_value) VALUES
  ('C=CCn1c(=O)c2cnc(Nc3ccc(N4CCN(C)CC4)cc3)nc2n1-c1ccc2c(n1)[C@](C)(O)CC2', 'AUC(0-t) at 24 h', 35),
  ('C=CCn1c(=O)c2cnc(Nc3ccc(N4CCN(C)CC4)c(C)c3)nc2n1-c1ccc2c(n1)[C@](C)(O)CC2', 'AUC(0-t) at 24 h', 40);

Next compound, AUC(0-t) at 24 h to be filled in.
Consider `C=CCn1c(=O)c2cnc(Nc3ccc(N4CCN(C)CC4)cc3)nc2n1-c1ccc2c(n1)[C@@](O)(CC)CCC2` . Its measured AUC(0-t) at 24 h is 24

* * *

Assay name: AUC(0 to 24 hrs) in mouse at 60 mg/kg, po
Assay type: ADME, organism-based
Parameters: time < 24 hr, route oral, dose 60 mg/kg
Condition parameters: in vivo
Quantity kind: AUC(0-t) at 24 h
Numeric answer plus unit only.

INSERT INTO results (compound, readout_value) VALUES
  ('C=CCn1c(=O)c2cnc(Nc3ccc(N4CCN(C)CC4)cc3)nc2n1-c1ccc2c(n1)[C@](C)(O)CCC2', '54 µM·h'),
  ('C=CCn1c(=O)c2cnc(Nc3ccc(N4CCN(C)CC4)cc3)nc2n1-c1ccc2c(n1)[C@@](C)(O)CC2', '21 µM·h'),
  ('C=CCn1c(=O)c2cnc(Nc3ccc(N4CCN(C)CC4)cc3)nc2n1-c1ccc2c(n1)[C@@](N)(CC)CC2', '3.9 µM·h');

Consider `C=CCn1c(=O)c2cnc(Nc3ccc4c(c3)CCN(C)C4)nc2n1-c1cccc(C(C)(C)O)n1` . Its measured AUC(0-t) at 24 h is 9.6 µM·h

Consider C=CCn1c(=O)c2cnc(Nc3ccc(N4CCN(C)CC4)cc3)nc2n1-c1ccc2c(n1)C(O)(CC)CC2 (racemic) . Its measured AUC(0-t) at 24 h is 32 µM·h

Consider `C=CCn1c(=O)c2cnc(Nc3ccc(N4CCNCC4)cc3)nc2n1-c1ccc2c(n1)[C@@](O)(CC)CC2` . Its measured AUC(0-t) at 24 h is 1 µM·h

Consider `C=CCn1c(=O)c2cnc(Nc3ccc(N4CCN(C)CC4)c(C)c3)nc2n1-c1ccc2c(n1)[C@@](O)(CC)CC2` . Its measured AUC(0-t) at 24 h is 59 µM·h

Consider `C=CCn1c(=O)c2cnc(Nc3ccc(N4CCN(C)CC4)cc3)nc2n1-c1ccc2c(n1)[C@](C)(O)CC2` . Its measured AUC(0-t) at 24 h is 27 µM·h

Consider C=CCn1c(=O)c2cnc(Nc3ccc(N4CCN(C)CC4)cc3)nc2n1-c1ccc2c(n1)C(O)(C(F)(F)F)CC2 (single isomer, unassigned) . Its measured AUC(0-t) at 24 h is 33 µM·h

* * *

Assay name: Intrinsic clearance in mouse microsomes
Assay type: ADME, Microsome
Quantity kind: CLint scaled (mL/min/kg)
Numbers only here, please. The scale is mL/min/kg.

// known answers, use as guide
INSERT INTO assay_data (molecule, readout_value) VALUES
  ('C=CCn1c(=O)c2cnc(Nc3cc(N4CCN(C)CC4)c4ccn(C)c4c3)nc2n1-c1ccc2c(n1)[C@@](O)(CC)CC2', 395),
  ('C=CCn1c(=O)c2cnc(Nc3ccc(N4CCN(C)CC4)cc3)nc2n1-c1ccc2c(n1)[C@@](N)(CC)CC2', 152),
  ('C=CCn1c(=O)c2cnc(Nc3ccc(N4CCN(C)CC4)cc3)nc2n1-c1ccc2c(c1)C(C)(O)CC2 (single isomer, unassigned)', 206),
  ('C=CCn1c(=O)c2cnc(Nc3ccc4c(c3)CN(C)CC4)nc2n1-c1cccc(C(C)(C)O)n1', 603),
  ('C=CCn1c(=O)c2cnc(Nc3ccc(N4CCN(C)CC4)cc3)nc2n1-c1ccc2c(n1)[C@@](O)(CC)CCC2', 126),
  ('C=CCn1c(=O)c2cnc(Nc3ccc(N4CCNCC4)cc3)nc2n1-c1ccc2c(n1)[C@@](O)(CC)CC2', 52),
  ('C=CCn1c(=O)c2cnc(Nc3ccc(N4CCN(C)CC4)cc3)nc2n1-c1ccc2c(n1)C(O)(C(F)(F)F)CC2 (single isomer, unassigned)', 126),
  ('C=CCn1c(=O)c2cnc(Nc3ccc(N4CCN(C)CC4)cc3)nc2n1-c1ccc2c(n1)[C@@](O)(C(F)F)CC2', 108);

Consider `C=CCn1c(=O)c2cnc(Nc3ccc4c(c3)CCN(C)C4)nc2n1-c1cccc(C(C)(C)O)n1` . Its measured CLint scaled is 186

* * *

// values below are pIC50; system is Wee1-like protein kinase (Homo sapiens)
Sequence (P30291 whole entry): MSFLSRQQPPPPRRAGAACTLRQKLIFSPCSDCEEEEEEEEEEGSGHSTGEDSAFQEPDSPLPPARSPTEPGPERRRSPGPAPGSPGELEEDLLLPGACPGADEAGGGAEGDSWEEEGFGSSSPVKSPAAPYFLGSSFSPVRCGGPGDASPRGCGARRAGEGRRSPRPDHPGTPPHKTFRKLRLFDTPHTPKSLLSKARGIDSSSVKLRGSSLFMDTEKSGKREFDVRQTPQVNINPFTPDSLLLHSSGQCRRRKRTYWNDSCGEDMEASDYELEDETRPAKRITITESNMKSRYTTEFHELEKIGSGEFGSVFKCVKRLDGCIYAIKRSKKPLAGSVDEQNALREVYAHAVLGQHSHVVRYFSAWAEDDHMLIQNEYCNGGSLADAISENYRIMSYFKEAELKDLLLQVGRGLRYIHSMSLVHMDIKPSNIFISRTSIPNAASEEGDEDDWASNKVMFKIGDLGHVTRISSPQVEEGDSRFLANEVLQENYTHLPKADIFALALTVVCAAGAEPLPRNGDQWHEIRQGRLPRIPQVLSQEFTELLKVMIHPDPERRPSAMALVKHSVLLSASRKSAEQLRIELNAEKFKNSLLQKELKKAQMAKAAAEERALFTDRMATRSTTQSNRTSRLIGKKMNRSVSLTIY
The read-out pIC50 is expressed as -log10 of concentration in moles per litre.

// known answers, use as guide
INSERT INTO assay_data (record_smiles, readout_value) VALUES
  ('C=CCn1c(=O)c2cnc(Nc3ccc4c(c3)CNCC43CC3)nc2n1-c1cccc(C(C)(C)O)n1', 8.62),
  ('C=CCn1c(=O)c2cnc(Nc3ccc4c(c3)CN(CCO)CC4)nc2n1-c1cccc(C(C)(C)O)n1', 8.60);

Consider `C=CCn1c(=O)c2cnc(Nc3ccc(N4CCN(C)CC4)cc3)nc2n1-c1ccc2c(n1)C(F)(F)CC2` . Its measured pIC50 is 8.19

Consider `C=CCn1c(=O)c2cnc(Nc3ccc4c(ccn4C4CCN(C)CC4)c3)nc2n1-c1ccc2c(n1)[C@@](O)(CC)CC2` . Its measured pIC50 is 8.59

* * *

Assay name: Plasma protein binding in human
Format: ADME, cell-free
Condition parameters: read-out: PPB (converted)
fraction unbound for assorted compounds
// keep it numeric: no unit symbol after the value

Consider `Cc1cn(-c2c(Cl)cccc2Cl)c(=O)c2cnc(Nc3ccc(N4CCN(C)CC4)cc3)nc12` . Its measured fraction unbound is 0.027

Consider `C=CCn1c(=O)c2cnc(Nc3ccc(N4CCN(C)CC4)cc3)nc2n1-c1ccc2c(n1)[C@](C)(O)CC2` . Its measured fraction unbound is 0.47

Consider C=CCn1c(=O)c2cnc(Nc3ccc(N4CCN(C)CC4)cc3)nc2n1-c1cccc(C(C)(C)O)n1 [ADAVOSERTIB] . Its measured fraction unbound is 0.361

Consider C=CCn1c(=O)c2cnc(Nc3ccc(N4CCN(C)CC4)cc3)nc2n1-c1ccc2c(n1)C(O)(CC)CC2 (racemic) . Its measured fraction unbound is 0.34
